Hey, just so you know, these numbers are from ChEMBL document CHEMBL1641405.

pIC50: −log10 of the molar value.
Measured Metric: pIC50

Bench note, Tyrosine-protein kinase CSK (Homo sapiens): Cc1ccc(-c2cn(C3CCCCC3=O)nn2)cc1 (stereo unspecified) , pIC50 reads < 4.00
